Hello, the source for this data is the supplement of paper PMC6757056, in case you need it.

B1: library; a variant is named by its letters at N, in order (parent)
chain: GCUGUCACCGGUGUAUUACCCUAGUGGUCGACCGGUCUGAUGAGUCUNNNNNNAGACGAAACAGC

- Variants of: B1
- ASSAY_COMMENT: normalized RNA/DNA level without ligand (relative to sTRSVctl = 100) (log10 (% of sTRSVctl)); ligand: hypoxanthine (xanthine aptamer); higher = less ribozyme self-cleavage, higher mRNA level
- RUN_CONDITIONS: HEK293T, reporter: mCherry (pCS4076), ligand present: no
VALUE_KIND: normalized RNA/DNA level without ligand (log10)
Form field (numeric): enter value without unit.

Here are 3 variants together with their reported answers.
> print(dat)
                                   seq.text  result.number
1  GCUGUCACCGGUGUAUUACCCUAGUGGUCGACCGGUCUGAUGAGUCUAACCCGAGACGAAACAGC           1.38
2  GCUGUCACCGGUGUAUUACCCUAGUGGUCGACCGGUCUGAUGAGUCUCGAAGUAGACGAAACAGC           1.86
3  GCUGUCACCGGUGUAUUACCCUAGUGGUCGACCGGUCUGAUGAGUCUCGCAAUAGACGAAACAGC           1.77

Problem: I am curious: what normalized RNA/DNA level without ligand (log10) value has been reported for GCUGUCACCGGUGUAUUACCCUAGUGGUCGACCGGUCUGAUGAGUCUAUAAAGAGACGAAACAGC ?
Solution: 1.51

Problem: # input variant: GCUGUCACCGGUGUAUUACCCUAGUGGUCGACCGGUCUGAUGAGUCUUCGUUGAGACGAAACAGC ; wanted: its normalized RNA/DNA level without ligand (log10)
Solution: 1.78

Problem: Record request: normalized RNA/DNA level without ligand (log10) value, item GCUGUCACCGGUGUAUUACCCUAGUGGUCGACCGGUCUGAUGAGUCUAUGAUAAGACGAAACAGC
Solution: 1.74

Problem: normalized RNA/DNA level without ligand (log10) lookup needed for GCUGUCACCGGUGUAUUACCCUAGUGGUCGACCGGUCUGAUGAGUCUUAGGUGAGACGAAACAGC , thanks.
Solution: 1.61
